species: Rattus norvegicus; test: Open TG-GATES - Regimen: Single; format: toxicity, organism-based, Sprague-Dawley; set-up: regimen Single, gender Male, age 6 weeks; conditions: in vivo, po, 0 mg/kg, 3 h, tissue Blood, route gavage, dose level Control
Label key: Y means APTT under 20 s; N means APTT of 20 s or more.

Task: Please determine if CC(=O)Nc1ccc2c(c1)Cc1ccccc1-2 is below 20 s in terms of APTT.
Output: N

Task: Please determine if CC(CCc1ccccc1)NCC(O)c1ccc(O)c(C(N)=O)c1 (configuration not stated) is below 20 s in terms of APTT.
Output: Y

Task: Please determine if CC[C@@H](CO)NCCN[C@@H](CC)CO is below 20 s in terms of APTT.
Output: N

Task: Please determine if CC(C)Cc1ccc(C(C)C(=O)O)cc1 (configuration not stated) is below 20 s in terms of APTT.
Output: N

Task: Please determine if O=C(O)COc1nn(Cc2ccccc2)c2ccccc12 is below 20 s in terms of APTT.
Output: Y
